Here the recorded growth inhibition is given for each entry.
# test_name: NCI Yeast Anticancer Drug Screen. Data for the rad50 strain (AID 155);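 also: 0% = growth of vehicle-only cultures of the same strain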
# reported_conditions: S. cerevisiae rad50 strain growth inhibition; at 50.0 µM; stronger effect = higher value
Compounds without any hit were thinned out: in the full panel of roughly 79,000, 15% have a hit.
Give just the numeric value; % need not be written.

>>> reported("COc1cc(C=Nc2cc(Cl)c(N=O)c(Cl)c2)ccc1N(CCCCl)CCCCl")
33.4

Consider now this further compound.
What measured growth inhibition goes with Nc1nc(N)c2nc(-c3ccc([N+](=O)[O-])cc3)c(=O)[nH]c2n1 ? -9.75

====

# test_name: NCI Yeast Anticancer Drug Screen. Data for the bub3 strain (AID 167)
# reported_conditions: S. cerevisiae bub3 mutant strain, at 50.0 µM, stronger effect = higher value
This is part of a sample that, as a whole, favours compounds with a hit. Of some 79,000 tested, about 15% had one in any assay.
readout_type: growth inhibition (%)
Quick note: give the figure in %, leave out the unit.

>>> reported("CCCCCCC(O)CCCCCCCCCCCO (stereo unspecified)")
10.2
>>> reported("CC(C)CCCC(C)C1CCC2C3CCC4CC(O)C5(CC4(C)C3CCC12C)SCCS5 (stereo unspecified)")
-6.35
>>> reported("Cn1c(=O)c2c(nc(N(CCN(N=O)c3nc4c(c(=O)n(C)c(=O)n4C)n3C)N=O)n2C)n(C)c1=O")
-8.85
>>> reported("CC(C)CCCC(C)C1CCC2C(CC(=O)O)C(C3(C)CCC(O)CC3=O)CCC2(C)C1 (stereo unspecified)")
1.85
>>> reported("O=C(O)COc1ccccc1-c1ccccc1")
1.55
>>> reported("[Cl][Bi]([O]c1ccccn1)[O]c1ccccn1")
28.6

Please give the measured growth inhibition for this compound: Nc1c(C(=O)Nc2ccc(S(N)(=O)=O)cc2)[n+]([O-])c2ccccc2[n+]1[O-] -9.95

Looking for the measured growth inhibition of O=C1CN(/N=C/c2ccc(-c3ccc(Cl)c(Cl)c3)o2)C(=O)N1 , can you help? 10

Given the entry NC(N)=N/N=C/c1c(Cl)nc2sccn12 , report its measured growth inhibition. -8.8

Would you kindly share the measured growth inhibition for O=C(Cn1nnc(N2CCCCC2)n1)N/N=C/c1ccccc1O ? -9.05

Bench note: what growth inhibition did N#CC1=C(N2CCCC2)NC(=O)CC1=O show? 7.2

====

# test_name: NCI Yeast Anticancer Drug Screen. Data for the bub3 strain (AID 167)
# reported_conditions: S. cerevisiae bub3 mutant strain, at 50.0 µM
About 79,000 compounds went through this panel and 15% of them were active in at least one assay; those are over-represented in the sample as a whole. Activity calls are given as the source filed them. Cut-off read from the data, not from the text of the source: active = growth inhibition above about 70%; inactive = the rest. Where a SMILES comes first, the peptide text is derived from it.
Entry note: the call must match one of active, inactive

Below are worked cases with known answers.
>>> cat("N#Cc1nc(Nc2ccc([N+](=O)[O-])cc2)sc1N")
"inactive"
>>> cat("CCNS(=O)(=O)c1cc(C(=O)O)cc(C(=O)O)c1")
"inactive"
>>> cat("CCOc1ccnc2c(OC)c(C)c3nc4ccccc4nc3c12")
"inactive"
>>> cat("CCCCc1ccc(-n2c(C)nc3[nH]cc(C)c3c2=N)cc1")
"inactive"
>>> cat("CC12CC(=O)Nc3ccccc3N1C(c1ccccc1)=NO2 (stereo unspecified)")
"inactive"

Per the assay record, what outcome was assigned to COC(=O)c1cc(=O)c2c(=O)[nH]c(=O)[nH]c2[nH]1 ? inactive

Hi team, can someone confirm the assay call for CSc1nc(N)n2nc(C3CC3)cc2n1 ? inactive

Hi team, can someone confirm the assay call for CC[P+](C)(Cc1ccccc1)c1ccccc1 (stereo unspecified) ? inactive

For this molecule, state the assay outcome: CCOC(=O)C1(Cc2ccccc2)Cc2ccccc2C1=O (stereo unspecified) active

// param item: CCCCC(CCCC)NCC(C)OC(=O)c1ccc(N)cc1 (stereo unspecified) ; yields the recorded call inactive

Any idea what this test logged for NCCCCC(NC(=O)C(N)Cc1cnc[nH]1)C(=O)O (stereo not drawn) (H-His-Lys-OH; configuration not given here) ? inactive

What was the test verdict on COc1cc(OC)c2c3c(OC)cc(OC)c4c(=O)c(O)c(C[C@@H](C)O)c(c5c(C[C@@H](C)O)c(O)c(=O)c1c25)c43 ? inactive

For O=C(O)C(CO)C(CO)C(=O)O (stereo unspecified) , which call appears in the assay record? inactive

Call for entry COCCc1ccncc1 : inactive

Per the records of this test, what outcome belongs to CC(=O)Nc1cc2c(cc1Cl)-c1ccc(Br)cc1C2 ? inactive

I'd appreciate the recorded outcome for C=CC(O)CCCCCC (stereo unspecified) from this test. inactive

What call does the record list for O=C(NO)Nc1ccc(Cl)cc1 ? inactive
